Just for reference, patent US20250100987A1 is where these values come from.

# Target: Kappa opioid receptor (KOR) (Homo sapiens)
# Sequence (P41145 whole entry): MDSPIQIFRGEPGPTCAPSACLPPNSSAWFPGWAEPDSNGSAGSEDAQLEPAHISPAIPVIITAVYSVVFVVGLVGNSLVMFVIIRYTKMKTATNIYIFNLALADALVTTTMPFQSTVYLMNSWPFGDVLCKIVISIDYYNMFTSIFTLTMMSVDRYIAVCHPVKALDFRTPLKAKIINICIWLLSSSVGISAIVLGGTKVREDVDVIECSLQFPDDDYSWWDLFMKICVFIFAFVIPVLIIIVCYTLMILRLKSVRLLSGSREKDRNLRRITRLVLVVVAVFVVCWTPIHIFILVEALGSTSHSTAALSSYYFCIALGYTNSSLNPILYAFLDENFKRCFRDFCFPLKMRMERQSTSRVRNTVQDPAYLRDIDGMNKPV
# Protocol: cell-based
# Run conditions: estimated EC50
Test readout: EC50

Compound	Test readout	Val
COCO[C@H]1C[C@@H](C(=O)OC)[C@]2(C)CC[C@H]3C(=O)C[C@H](c4ccoc4)C[C@@H]3[C@H]2C1=O [ALB-231273]	EC50	< 0.1 nM

====

# Target: UniProt P41145
# Protocol: cell-based
# Run conditions: EC50 Potency Score

Molecule	EC50
COC(=O)[C@@H]1C[C@H](OC(=O)/C=C/c2ccccc2)C(=O)[C@@H]2[C@H]3C[C@@H](c4ccoc4)CC(=O)[C@@H]3CC[C@]21C [ALB-231360]	1 to 10 µM
COC(=O)[C@@H]1C[C@@H](OC(C)=O)C(=O)[C@@H]2[C@@]3(C)C[C@@H](c4ccoc4)CC(=O)[C@@H]3CC[C@]21C [ALB-230935, 2-cpi-O6C-20-nor-SalA]	0.001 to 0.1 µM
COC(=O)[C@@H]1C[C@H](OC(C)=O)C(=O)[C@@H]2[C@@]3(C)C[C@@H](c4ccoc4)CC(=O)[C@@H]3CC[C@]21C (racemic) [ALB-230937, O6C-20-nor-SalA racemic mixture]	< 0.001 µM
COCO[C@H]1C[C@@H](C(=O)OC)[C@]2(C)CC[C@H]3C(=O)C[C@H](c4ccoc4)C[C@@H]3[C@H]2C1=O [ALB-231273]	< 0.001 µM
COC(=O)[C@@H]1C[C@H](O)C(=O)[C@@H]2[C@H]3C[C@@H](c4ccoc4)CC(=O)[C@@H]3CC[C@]21C [ALB-231274, O6C-20-nor-SalB]	1 to 10 µM
